# system_under_test: T1, TBD-6 (LC I93A)
# T1 construct: Fab; also called LC I93A mutant
# experimental_protocol: competition ELISA, peptide vs Fab binding to captured biotin-TROP2
pIC50: −log10 of the molar value. Where no end group is shown, it is not given here.
parameter_measured: pIC50

>  <binder>
IDFCLIYNWPVCDT (cysteine pairing not given here; also: biotinylated, site not given here) [Peptide-6]

>  <measured_number>
5.73

$$$$

P = LDFCKIYDWPICHL (cysteine pairing not given here; also: biotinylated (site not given here)) [Peptide-14]
Q = IDFCMLYNWPICAG (cysteine pairing not given here; also: biotinylated, site not given here) [Peptide-3]
R = VDFCELYRWPICNS (cysteine pairing not given here; also: biotinylated (site not given here)) [Peptide-13]
Enquiry: Arrange these 3 binders in increasing order of pIC50. Thanks in advance for listing the labels in the requested order.
Return: P, R, Q
(P: 5.81, R: 6.01, Q: 6.43)
